Molecular target: GSK-3β (Homo sapiens, UniProt P49841)
Sequence (P49841 whole entry): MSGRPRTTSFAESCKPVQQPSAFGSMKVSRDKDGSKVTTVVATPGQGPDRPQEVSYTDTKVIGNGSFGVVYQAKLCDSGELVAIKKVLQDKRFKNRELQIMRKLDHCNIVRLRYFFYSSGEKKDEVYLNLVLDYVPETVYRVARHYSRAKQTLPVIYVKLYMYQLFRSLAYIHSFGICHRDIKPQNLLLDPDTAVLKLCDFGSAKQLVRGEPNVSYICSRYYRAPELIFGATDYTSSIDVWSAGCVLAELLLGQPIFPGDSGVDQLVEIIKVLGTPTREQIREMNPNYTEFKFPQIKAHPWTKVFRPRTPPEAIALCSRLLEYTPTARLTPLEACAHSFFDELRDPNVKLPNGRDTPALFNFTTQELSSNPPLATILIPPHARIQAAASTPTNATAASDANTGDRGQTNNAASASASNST
Entries and their measured log10 of IC50 follow.
Answers are given as log10 of IC50 in µM.

Asked: Entry under review: Cc1ccccc1-c1ccncc1-c1cc2[nH]nc(NC(=O)C(C)C)c2s1 [Compound 18b] . Reported log10 of IC50?
Given back: -1.19

Asked: Next record, please: CC(C)C(=O)Nc1n[nH]c2cc(-c3cnccc3-c3ccccc3F)sc12 [Compound 18h]
Given back: -1.03

Asked: Lookup CC(C)C(=O)Nc1n[nH]c2cc(-c3cncc(-c4ccccc4)c3)sc12 [Compound 17b]
Given back: -1.85

Asked: Can you handle O=C(Nc1n[nH]c2cc(-c3cccnc3)sc12)C1CC1 [Compound 16a] next?
Given back: -2.36

Asked: Would you mind doing CC(C)C(=O)Nc1n[nH]c2cc(-c3cnccc3-c3ccc(-c4ccccc4)cc3)sc12 [Compound 18m] as well?
Given back: -0.41

Asked: Cool, now O=C(Nc1n[nH]c2cc(-c3cncc(-c4ccccc4)c3)sc12)C1CC1 [Compound 17a]
Given back: -1.70

Asked: Request: CC(C)C(=O)Nc1n[nH]c2cc(-c3cnccc3-c3ccc(F)cc3)sc12 [Compound 18j]
Given back: -1.82

###

measurement_name: melting point

{"compound": "CCCS(=O)(=O)Nc1n[nH]c2cc(-c3cccnc3)sc12 [Compound 16d]", "measurement_name": "melting point", "result": "208 to 210 °C"}
{"compound": "CCCS(=O)(=O)Nc1n[nH]c2cc(-c3cncc(-c4ccccc4)c3)sc12 [Compound 17d]", "measurement_name": "melting point", "result": "112 to 114 °C"}
{"compound": "CC(C)C(=O)Nc1n[nH]c2cc(-c3cnccc3-c3cccc(F)c3)sc12 [Compound 18i]", "measurement_name": "melting point", "result": "> 240 °C"}
{"compound": "CCCC(=O)Nc1n[nH]c2cc(-c3cncc(-c4ccccc4)c3)sc12 [Compound 17c]", "measurement_name": "melting point", "result": "> 240 °C"}

Asked: For the compound shown here, O=C(Nc1n[nH]c2cc(-c3cccnc3)sc12)C1CC1 [Compound 16a] , give the reported melting point.
Given back: 224 to 226 °C

Asked: Can you check O=C(Nc1n[nH]c2cc(-c3cncc(-c4ccccc4)c3)sc12)C1CC1 [Compound 17a] next?
Given back: > 240 °C

Asked: Then what about the compound COc1cccc(-c2ccncc2-c2cc3[nH]nc(NC(=O)C(C)C)c3s2)c1 [Compound 18f] ?
Given back: 212 to 214 °C

Asked: Now try CC(C)C(=O)Nc1n[nH]c2cc(-c3cnccc3-c3ccccc3)sc12 [Compound 18a] .
Given back: > 240 °C

Asked: And the next one, CC(C)C(=O)Nc1n[nH]c2cc(-c3cnccc3-c3ccccc3F)sc12 [Compound 18h] ?
Given back: > 240 °C

Asked: Another compound to look at: CC(C)C(=O)Nc1n[nH]c2cc(-c3cnccc3-c3cccc(C(F)(F)F)c3)sc12 [Compound 18k]
Given back: 202 to 204 °C

Asked: Then O=C(Nc1n[nH]c2cc(-c3cccnc3)sc12)c1ccccc1 [Compound 16e] ?
Given back: > 240 °C

###

measurement_name: melting point

{"compound": "Cc1ccccc1-c1ccncc1-c1cc2[nH]nc(NC(=O)C(C)C)c2s1 [Compound 18b]", "result": "> 240 °C"}
{"compound": "COc1ccc(-c2ccncc2-c2cc3[nH]nc(NC(=O)C(C)C)c3s2)cc1 [Compound 18g]", "result": "> 240 °C"}
{"compound": "CCCC(=O)Nc1n[nH]c2cc(-c3cccnc3)sc12 [Compound 16c]", "result": "238 to 240 °C"}

Here is the next item to consider.
Asked: Any idea what its melting point is? The compound is CC(C)C(=O)Nc1n[nH]c2cc(-c3cnccc3-c3ccc4ccccc4c3)sc12 [Compound 18n]
Given back: > 240 °C

###

Target: GSK-3β (Homo sapiens)
pIC50: −log10 of the molar value.
Outcome label depends on pIC50 relative to 7: at/above gives 1.0, below gives 0.0.

{"compound": "CC(C)C(=O)Nc1n[nH]c2cc(-c3cnccc3-c3cccc(F)c3)sc12 [Compound 18i]", "class": 0.0}
{"compound": "O=C(Nc1n[nH]c2cc(-c3cccnc3)sc12)c1ccccc1 [Compound 16e]", "class": 1.0}
{"compound": "CC(C)C(=O)Nc1n[nH]c2cc(-c3cccnc3)sc12 [Compound 16b]", "class": 1.0}
{"compound": "CCCS(=O)(=O)Nc1n[nH]c2cc(-c3cncc(-c4ccccc4)c3)sc12 [Compound 17d]", "class": 0.0}
{"compound": "CCCC(=O)Nc1n[nH]c2cc(-c3cccnc3)sc12 [Compound 16c]", "class": 1.0}

Okay, next one:
Asked: Please indicate if the recorded pIC50 for CCCS(=O)(=O)Nc1n[nH]c2cc(-c3cccnc3)sc12 [Compound 16d] meets or exceeds 7.
Given back: 0.0

###

Listed here are compounds together with their documented melting point.

Some compounds with known melting point results, for comparison:
{"compound": "CC(C)C(=O)Nc1n[nH]c2cc(-c3cnccc3-c3ccc(F)cc3)sc12 [Compound 18j]", "melting point": "> 240 °C"}
{"compound": "Cc1ccc(-c2ccncc2-c2cc3[nH]nc(NC(=O)C(C)C)c3s2)cc1 [Compound 18d]", "melting point": "239 to 240 °C"}
{"compound": "CC(C)C(=O)Nc1n[nH]c2cc(-c3cncc(-c4ccccc4)c3)sc12 [Compound 17b]", "melting point": "> 240 °C"}
{"compound": "CC(C)C(=O)Nc1n[nH]c2cc(-c3cnccc3-c3ccc(C(F)(F)F)cc3)sc12 [Compound 18l]", "melting point": "> 240 °C"}
{"compound": "Cc1cccc(-c2ccncc2-c2cc3[nH]nc(NC(=O)C(C)C)c3s2)c1 [Compound 18c]", "melting point": "236 to 238 °C"}

Asked: Recorded melting point for COc1ccccc1-c1ccncc1-c1cc2[nH]nc(NC(=O)C(C)C)c2s1 [Compound 18e] , please?
Given back: 213 to 215 °C

Asked: And for CC(C)C(=O)Nc1n[nH]c2cc(-c3cnccc3-c3ccc(-c4ccccc4)cc3)sc12 [Compound 18m] ?
Given back: 159 to 161 °C

###

# pIC50 per entry for GSK-3β (Homo sapiens, UniProt P49841)
Scale: pIC50 equals -log10([C]), with [C] in mol/L.

Sample records with pIC50:
{"compound": "Cc1ccc(-c2ccncc2-c2cc3[nH]nc(NC(=O)C(C)C)c3s2)cc1 [Compound 18d]", "pIC50": 7.00}
{"compound": "CC(C)C(=O)Nc1n[nH]c2cc(-c3cnccc3-c3ccc(C(F)(F)F)cc3)sc12 [Compound 18l]", "pIC50": 6.80}
{"compound": "CC(C)C(=O)Nc1n[nH]c2cc(-c3cnccc3-c3cccc(C(F)(F)F)c3)sc12 [Compound 18k]", "pIC50": 6.97}

Asked: Give the reported pIC50 for COc1ccc(-c2ccncc2-c2cc3[nH]nc(NC(=O)C(C)C)c3s2)cc1 [Compound 18g] (system: GSK-3β (Homo sapiens, UniProt P49841)).
Given back: 6.98

Asked: Can you check CC(C)C(=O)Nc1n[nH]c2cc(-c3cnccc3-c3ccccc3)sc12 [Compound 18a] next?
Given back: 7.08
